Test system: CH strain flies
testName: spray application of pyrethrum, average percent knockdown with time
Format: in vivo, housefly (CH strain)
conditionSet: pyrethrum 100 + synergist 100 mg/cc, 10 min
parameterMeasured: average percent knockdown

The examples below pair each entry with its known result.
{"columns": ["smilesRepr", "measuredTarget", "value"],
 "data": [
  ["C#CCON=Cc1ccc(Cl)cc1Cl", "CH strain flies", "12%"],
  ["C#CCOCc1c(Cl)ccc(Cl)c1Cl", "CH strain flies", "9%"],
  ["C#CCON=Cc1cccc2ccccc12", "CH strain flies", "7%"]
]}

Okay, next one:
Which measured average percent knockdown value corresponds to `C#CCON=C(C)c1ccc(Cl)cc1` ? 15%
